Some compounds, each annotated with its measured IL-6 production inhibition ratio (%).
# System: TNF-α-induced IL-6 production in normal human skin fibroblast-derived CCD-1059Sk cells
# protocol-details: Test for measurement of inhibitory activity against TNF-α-induced IL-6 production in CCD-1059Sk cells (HTRF Human IL-6 kit)
# Assay type: cell-based
# condition-details: test compound at 10 μM; TNF-α-stimulated CCD-1059Sk cells, 16 hours; inhibition ratio which is 100% or more is indicated to be 100%
assay-endpoint: IL-6 production inhibition ratio (%)

[
  {
    "query-smiles": "NC(=O)Nc1[nH]c(-c2ccc3ccccc3c2)cc1C(N)=O",
    "qualifier-sign": "=",
    "observed-value": 90
  },
  {
    "query-smiles": "NC(=O)Nc1[nH]c(-c2cc3ccccc3o2)cc1C(N)=O",
    "qualifier-sign": "=",
    "observed-value": 98
  },
  {
    "query-smiles": "NC(=O)Nc1[nH]c(-c2cccc3c2OCCO3)cc1C(N)=O",
    "qualifier-sign": "=",
    "observed-value": 97
  },
  {
    "query-smiles": "NC(=O)Nc1[nH]c(-c2cccc3c2OCC3)cc1C(N)=O",
    "qualifier-sign": "≥",
    "observed-value": 100
  },
  {
    "query-smiles": "NC(=O)Nc1[nH]c(-c2ccc3occc3c2)cc1C(N)=O",
    "qualifier-sign": "=",
    "observed-value": 86
  },
  {
    "query-smiles": "Cc1c(-c2cc(C(N)=O)c(NC(N)=O)[nH]2)sc2ccccc12",
    "qualifier-sign": "=",
    "observed-value": 98
  },
  {
    "query-smiles": "NC(=O)Nc1[nH]c(-c2ccc3sccc3c2)cc1C(N)=O",
    "qualifier-sign": "=",
    "observed-value": 95
  }
]
